Assay: CellTiter-Glo luminescent readout of SW480 viability loss, NPC library primary (AID 1117343)
Conditions: CellTiter-Glo luminescence; at 20 µM (top of the series) unless noted
Overview of reported viability decrease (inhibition) across a group of molecules:
Please reply with the bare figure in % and do not write the unit itself.

[
  {
    "molecule": "CC[C@H](C)[C@H](N)C(=O)O",
    "viability decrease (inhibition) / %": 0.9
  },
  {
    "molecule": "CCCCC(CC)COC(=O)c1ccccc1O (stereo not given)",
    "viability decrease (inhibition) / %": 50.1
  },
  {
    "molecule": "CN(C/C=C/c1ccccc1)Cc1cccc2ccccc12",
    "viability decrease (inhibition) / %": 95.4
  }
]

Quick check: viability decrease (inhibition) of "COc1c(C)c2c(c(O)c1C/C=C(\C)CCC(=O)OCCN1CCOCC1)C(=O)OC2" ? 71.8

# repeat for "C[C@@H]1C[C@H]2[C@@H]3CCC4=CC(=O)C=C[C@]4(C)[C@@]3(Cl)[C@@H](O)C[C@]2(C)[C@@]1(OC(=O)c1ccco1)C(=O)CCl" 119
